- MEASURED_TARGET: N-terminal GST tagged recombinant human RET cytoplasmic domain (aa 658-end), wild type RET kinase (Homo sapiens (Human), UniProt P07949)
- Sequence (P07949 658-1114): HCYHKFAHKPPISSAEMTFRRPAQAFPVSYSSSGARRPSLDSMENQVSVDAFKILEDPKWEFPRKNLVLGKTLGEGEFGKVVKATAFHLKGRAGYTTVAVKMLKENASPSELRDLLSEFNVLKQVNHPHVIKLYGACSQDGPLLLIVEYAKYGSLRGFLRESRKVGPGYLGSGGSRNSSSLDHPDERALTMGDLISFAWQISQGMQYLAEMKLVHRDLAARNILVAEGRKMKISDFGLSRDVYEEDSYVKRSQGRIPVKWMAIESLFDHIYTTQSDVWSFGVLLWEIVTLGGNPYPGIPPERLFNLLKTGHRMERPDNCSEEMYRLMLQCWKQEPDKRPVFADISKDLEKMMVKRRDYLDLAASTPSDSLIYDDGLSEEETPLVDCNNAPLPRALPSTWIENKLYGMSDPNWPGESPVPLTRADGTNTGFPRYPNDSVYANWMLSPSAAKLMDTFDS
- EXPERIMENT_SUMMARY: RET Enzyme Assay (HTRF KinEASE-TK), wild type RET
- Assay type: biochemical
- SETUP_CONDITIONS: wild type RET, 1 mM ATP
Where a name gives a salt, the structure may show the parent alone.
Use IC50 to assign classes; range list: lower range = under 10 nM, middle range = from 10 nM up to 30 nM, upper range = 30 nM and over

COc1ccc(CN2CCN(c3ccc(-c4cc(-c5cnn(CC(C)CO)c5)cn5ncc(C#N)c45)cn3)CC2)cn1 (stereo in doubt) [Example 707] = middle range
Cn1cc(-c2cc(-c3ccc(N4CCN(C(=O)OC(C)(C)C)CC4)nc3)c3c(Cl)cnn3c2)cn1 [Example 325] = upper range
CN(C)CC(=O)N1CCN(c2ccc(-c3cc(-c4cnn(C)c4)cn4ncc(Cl)c34)cn2)CC1 [Example 328] = upper range
CO[C@H](C)CN1CCN(c2ccc(-c3cc(-c4cnn(C)c4)cn4ncc(C#N)c34)cn2)CC1 [Example 412] = middle range
CC(C)CNC(=O)N1CCN(c2ccc(-c3cc(-c4cnn(C)c4)cn4ncc(C#N)c34)cn2)CC1 [Example 133] = lower range

Inquiry: Please let me know in which category the item COCCN(C)C(=O)N1CCN(c2ccc(-c3cc(-c4cnn(C)c4)cn4ncc(C#N)c34)cn2)CC1 [Example 130, 2,2,2-trifluoroacetate] belongs.
Reply text: middle range

Inquiry: Quick check: band for CC(C)NC(=O)N1CCN(c2ccc(-c3cc(-c4cnn(C)c4)cn4ncc(C#N)c34)cn2)CC1 [Example 126]
Reply text: middle range

Inquiry: Consider COc1ccc(CN2CCN(c3ccc(-c4cc(-c5cnn(CC(C)OC)c5)cn5ncc(C#N)c45)cn3)CC2)cn1 (stereo not drawn) [Example 709] . To which IC50 class does it belong?
Reply text: middle range

Inquiry: # bin label for COCCN(CCOC)C(=O)N1CCN(c2ccc(-c3cc(-c4cnn(C)c4)cn4ncc(C#N)c34)cn2)CC1 [Example 385]
Reply text: middle range

Inquiry: Quick check: band for CCC1(C(=O)N[C@H](C)C(F)(F)F)CCN(c2ccc(-c3cc(-c4cnn(C)c4)cn4ncc(C#N)c34)cn2)CC1 [Example 257]
Reply text: middle range

Inquiry: Hello team, could you let me know which band the following compound falls into: CN(C)C(=O)CCN1CCN(c2ccc(-c3cc(-c4cnn(C)c4)cn4ncc(C#N)c34)cn2)CC1 [Example 146, trifluoroacetate]
Reply text: middle range

Inquiry: Any idea which band COc1ccc(CN2CCN(c3ccc(-c4cc(-c5cnn(C[C@@H](C)O)c5)cn5ncc(C#N)c45)cn3)CC2)cn1 [Example 700] is in?
Reply text: middle range

Where these numbers come from: patent US10023570B2
